B1: HEEH_KT_rd6_0790 (parent)
chain: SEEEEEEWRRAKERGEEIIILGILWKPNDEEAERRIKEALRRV

- Variants of: B1
- assay: folding stability dG (cDNA display proteolysis); higher = more stable
- condition: PBS, room temperature
Please go through the items and note down their folding stability dG.
Write the number in kcal/mol without appending the unit.

State its folding stability dG for this variant: SEEEEEEWRRAKERGEEIIILGILGKPNDEEAERRIKEALRRV [W25G]
0.809

// fetch folding stability dG given entry SEEEEEEWRRAKERGEEIIILGILWKPNDEENERRIKEALRRV [A32N]
1.02

Answer with reported folding stability dG of SEEEEEEWRRAKERGEEIIILGILWKPNDEEAERRIMEALRRV [K37M]
2.23

Identify folding stability dG associated with the variant SEEEEEEWRRAKERGENIIILGILWKPNDEEAERRIKEALRRV [E17N]
1.95

For the variant SEEEEEEWRRAKERGEEIIILGILWKPNDEEAEMRIKEALRRV [R34M] , give its reported folding stability dG.
2.12

Look up and report measured folding stability dG for this entry: SEEEEEEWRRAKERGEEIIILGILWKPNDEEAERRIKEYLRRV [A39Y]
1.56

Tell me its folding stability dG given SEEEEEEWRRAKERSEEIIILGILWKPNDEEAERRIKEALRRV [G15S] as the entry.
1.61

Hello, please tell me recorded folding stability dG for this one: SEEEEEEWRRAKERGEEIIILGILWKPNDEEAERRVKEALRRV [I36V]
2.01

Recall and state the measured folding stability dG for SEEEEEEWRRAKERGEEIIILGILWKPNDEEAERRIKEARRRV [L40R] .
1.2

Give me measured folding stability dG, please, for this variant: SEEEEEEWRRAKERGEMIIILGILWKPNDEEAERRIKEALRRV [E17M]
2.02

Consider the variant SEEEEEEWRRAKERGEEIFILGILWKPNDEEAERRIKEALRRV [I19F] and give its recorded folding stability dG.
2.08

Please report folding stability dG for the following variant: SEEEEEEWRRAKERGEEIIIMGILWKPNDEEAERRIKEALRRV [L21M]
2.35

Check the records and state folding stability dG for SEEEEEEWRRAKERGEEIIILGILWKPNDEEAERRIFEALRRV [K37F]
2.11

Determine its reported folding stability dG: SEEEEEDWRRAKERGEEIIILGILWKPNDEEAERRIKEALRRV [E7D]
1.99

Tell me measured folding stability dG for SEEEEEEWRRAKERGEEIIILGILWKPNDEEAERRIKEALFRV [R41F] please.
1.76

For SEEEEEECRRAKERGEEIIILGILWKPNDEEAERRIKEALRRV [W8C] , write its folding stability dG.
1.67

Output measured folding stability dG for this item: SEEEEEEWRRAKERGEEIIILGILWKPNDEEAERRYKEALRRV [I36Y]
1.02

Tell me measured folding stability dG for SEEAEEEWRRAKERGEEIIILGILWKPNDEEAERRIKEALRRV [E4A] please.
2.68

Fill in reported folding stability dG for this entry: SEEEEEEWRRAKERGEESIILGILWKPNDEEAERRIKEALRRV [I18S]
1.17

Tell me measured folding stability dG for SEEEEEEWRRAKERGEEIIILGILWKPNDEEAEDRIKEALRRV [R34D] please.
1.64

Name the recorded folding stability dG of the item SEEEEEEERRAKERGEEIIILGILWKPNDEEAERRIKEALRRV [W8E] in your answer.
0.744

Input SEEEEEEWRRAKERGEEIIILWILWKPNDEEAERRIKEALRRV [G22W] , output reported folding stability dG.
1.93

Entry SEEEEEEWRRAKERGEEIIILGILWKPNDMEAERRIKEALRRV [E30M] needs its folding stability dG filled in; supply it.
2.24

For the variant SEEEEEEWRRAKERGEEIIILGILWKPNDEEAERRIKEALVRV [R41V] , give its measured folding stability dG value.
1.75

Return the recorded folding stability dG value; entry: SEEEEEEWRRAKERGEEIIILGILWKPNDEEAEREIKEALRRV [R35E]
1.68

Determine from records and report folding stability dG for SEEEEEEWRRAKERGEEIIILGILWKPNDEEAERRIKAALRRV [E38A]
1.94

Report folding stability dG for SEEEEEEPRRAKERGEEIIILGILWKPNDEEAERRIKEALRRV [W8P]
1

Name the recorded folding stability dG of the variant listed here: SEEEEEEWRRAKERGEEIIILAILWKPNDEEAERRIKEALRRV [G22A]
1.37

Specify folding stability dG for SEEEEEEWRRAKERGEEIIILGILWKFNDEEAERRIKEALRRV [P27F] and stop.
1.41

Give the value of folding stability dG reported for the following: SEEEEEEWRRAKERGECIIILGILWKPNDEEAERRIKEALRRV [E17C]
2.35

Give the value of folding stability dG reported for the following: SEEEEEEWRRAKERGEEIIILGILWKPNDEELERRIKEALRRV [A32L]
1.41

Supply recorded folding stability dG for SEEEEEEWRRAKERGEEIIILGILWKPNDEEAERRIKEAERRV [L40E] here.
0.814

Output measured folding stability dG for this item: SEEEEEEWRRAKERGEEIIILGILWKPFDEEAERRIKEALRRV [N28F]
2.1

Name the recorded folding stability dG of the variant listed here: SEEEEEEWRRAKERGEEIIDLGILWKPNDEEAERRIKEALRRV [I20D]
0.628

Dear colleague, please send me the reported folding stability dG for SEEEEEEWRRAKEQGEEIIILGILWKPNDEEAERRIKEALRRV [R14Q] when you can.
1.83

Give reported folding stability dG value for SEEEEEEWRRAKPRGEEIIILGILWKPNDEEAERRIKEALRRV [E13P]
0.785

Supply recorded folding stability dG for SEEEEEEWRRAKEMGEEIIILGILWKPNDEEAERRIKEALRRV [R14M] here.
1.88

Return folding stability dG for the following variant: SEEEEEEWRRAKERGEEIIGLGILWKPNDEEAERRIKEALRRV [I20G]
0.748

Provide one value: measured folding stability dG of SEEEEEEWRRAKERGEEIIILGILWKPNDEEAERRIKIALRRV [E38I]
1.91

Identify measured folding stability dG corresponding to SEEEEEGWRRAKERGEEIIILGILWKPNDEEAERRIKEALRRV [E7G]
1.81

Give reported folding stability dG value for SEEEEEEWRRAKERGEEIIILGILWKPNDEEAETRIKEALRRV [R34T]
1.9

Let me know recorded folding stability dG for SEEEEEEWRRAKERGEEIIILGILWFPNDEEAERRIKEALRRV [K26F] , thanks.
1.51

Note folding stability dG for the variant shown: SEEEEENWRRAKERGEEIIILGILWKPNDEEAERRIKEALRRV [E7N]
2.54

Please look at this variant and report its folding stability dG: SEEEEEEWRRAKERGEEIIILGILWKPNDEEAERRIKEACRRV [L40C]
1.55

Check the records and state folding stability dG for SEEEEEEWRRAKERGEEIIILGILWKPNDIEAERRIKEALRRV [E30I]
2.17

Recall and state the measured folding stability dG for SEEEEEEWRRAKERGEEIIILGILWKPNDEEAERRIKNALRRV [E38N] .
1.61

Give the reported value of folding stability dG for this record: SEEEEEEWRKAKERGEEIIILGILWKPNDEEAERRIKEALRRV [R10K]
2.04

Provide measured folding stability dG value, entry: SEEEEEEWRRAKERGEEIYILGILWKPNDEEAERRIKEALRRV [I19Y]
2.2

# return recorded folding stability dG for entry SEEEEEEWRRAKERGEEIIILGILWKPNDEEAERRIVEALRRV [K37V]
2.44

Indicate the recorded folding stability dG value for this variant: SEEEEEEWRRAKERGEEIIILGILWKPNPEEAERRIKEALRRV [D29P]
1.09

Give me measured folding stability dG, please, for this variant: SEEEEEEWRRAKERGEEIIILGILWKPNDEEAERRGKEALRRV [I36G]
1.03

Fill in reported folding stability dG for this entry: WEEEEEEWRRAKERGEEIIILGILWKPNDEEAERRIKEALRRV [S1W]
2.77

Report measured folding stability dG; entry is SEEEEEEWRRAKMRGEEIIILGILWKPNDEEAERRIKEALRRV [E13M]
2.23

Identify measured folding stability dG corresponding to SEEEEEEWRRAKERGEEVIILGILWKPNDEEAERRIKEALRRV [I18V]
2.15

Specify folding stability dG for SEEEEEEWRRAKERWEEIIILGILWKPNDEEAERRIKEALRRV [G15W] and stop.
1.68

Tell me measured folding stability dG for SEEEEEEWRRAKERGEEIIILGILWKPNDEEAERAIKEALRRV [R35A] please.
2.21

Name the recorded folding stability dG of the item SEEEEEEWRRAKERGEEIIILGILWKPNREEAERRIKEALRRV [D29R] in your answer.
1.19

For the variant SEEEEHEWRRAKERGEEIIILGILWKPNDEEAERRIKEALRRV [E6H] , give its reported folding stability dG.
1.61

Provide one value: measured folding stability dG of PEEEEEEWRRAKERGEEIIILGILWKPNDEEAERRIKEALRRV [S1P]
2.23

Identify the reported folding stability dG for the following entry. SEEEEAEWRRAKERGEEIIILGILWKPNDEEAERRIKEALRRV [E6A]
1.99

Answer with the recorded folding stability dG of SEEEEEEWRRAKERGEEIIILGILWKPNDEEAERRIKEALRRK [V43K] only.
2.59

Using known records, supply folding stability dG for SEEEEEEHRRAKERGEEIIILGILWKPNDEEAERRIKEALRRV [W8H]
0.824

Supply folding stability dG value. Item: SEEEEEEWRRHKERGEEIIILGILWKPNDEEAERRIKEALRRV [A11H]
1.6

Retrieve folding stability dG measured for SEEEEEEWRRAKERGEEIIILGILWKPNDVEAERRIKEALRRV [E30V] and print it.
2.04

Assign folding stability dG to the following record: SESEEEEWRRAKERGEEIIILGILWKPNDEEAERRIKEALRRV [E3S]
2.49

Fill in reported folding stability dG for this entry: SEEEEEEWRRAKERGEEIIILGILWKPNDEPAERRIKEALRRV [E31P]
0.967

Identify measured folding stability dG corresponding to SEEEEEEWRRAKERGEEIIILGIQWKPNDEEAERRIKEALRRV [L24Q]
1.66

Indicate the recorded folding stability dG value for this variant: SEEEEEEWRRAKERGEETIILGILWKPNDEEAERRIKEALRRV [I18T]
1.84

Supply folding stability dG value. Item: SEEEEEEWRRAKERGEEIIILGILWKPNDEEAERRIKPALRRV [E38P]
1.11

Please give measured folding stability dG of the following entry: SEAEEEEWRRAKERGEEIIILGILWKPNDEEAERRIKEALRRV [E3A]
2.33

Give the value of folding stability dG reported for the following: SEEEEEEWRRAKERGEEIIILGILWKPNDTEAERRIKEALRRV [E30T]
1.9

Give a short answer stating reported folding stability dG for SEEEEEEWRRAKERGEEIIILGILWKPNDEYAERRIKEALRRV [E31Y] .
1.56

Give the value of folding stability dG reported for the following: SEEEEEEWRRACERGEEIIILGILWKPNDEEAERRIKEALRRV [K12C]
2.01

Please report folding stability dG for the following variant: SEEEEEEWRRAKERGEEIIILGILWKPNDEEAERGIKEALRRV [R35G]
1.32

Recall and state the measured folding stability dG for SEEEEEEWRRAKERGEGIIILGILWKPNDEEAERRIKEALRRV [E17G] .
1.53

Give a short answer stating reported folding stability dG for SEEEEEEWRRAFERGEEIIILGILWKPNDEEAERRIKEALRRV [K12F] .
2.13

Please supply the value of reported folding stability dG for the item SEEEEEEWRRAKERGEEIIILGILWKPNDEEAERRIKEAKRRV [L40K]
1.06

In one line, give reported folding stability dG of the entry SEEEEEEWRRAKERGEEIIILGILWKVNDEEAERRIKEALRRV [P27V] .
1.2

Answer with the recorded folding stability dG for the variant listed here: SEEEEEEWRRAKERGEEIIILGILWKPNDEEAERRIKEALRRS [V43S]
2.21

Give me measured folding stability dG, please, for this variant: SEEEEEEWRRAKERGEEIIILGPLWKPNDEEAERRIKEALRRV [I23P]
0.9

Answer with reported folding stability dG of SEEEEEEWRRQKERGEEIIILGILWKPNDEEAERRIKEALRRV [A11Q]
1.2

Specify reported folding stability dG for the variant shown: SEEEEEEWRRAKERGEEIIILHILWKPNDEEAERRIKEALRRV [G22H]
1.1

For the variant SEEEEEEWRRAKERGEEIIILGILWKPNDEEAERRIKEHLRRV [A39H] , give its measured folding stability dG value.
1.38

Note down folding stability dG recorded for SEEEEEEWRRNKERGEEIIILGILWKPNDEEAERRIKEALRRV [A11N]
1.28

Find the measured folding stability dG of SEEEEEEWRRAKERGEEIIILGILWKPNDEEAERRIKEVLRRV [A39V] and report it.
1.6

Recall and state the measured folding stability dG for SEEEEEEWRRAKERGEEIIILGILWKPNDEEGERRIKEALRRV [A32G] .
1.2

Indicate its recorded folding stability dG; the variant in question is SEEEEEEWRRAKERGEEIIILGILWKPNDREAERRIKEALRRV [E30R]
1.81

Specify folding stability dG for HEEEEEEWRRAKERGEEIIILGILWKPNDEEAERRIKEALRRV [S1H] and stop.
2.67

Tell me its folding stability dG given SEEEEEEWRRAKERGEEIIILGILWKPNDEEAERRIKEALRRP [V43P] as the entry.
1.84

Kindly indicate its recorded folding stability dG. Item: SEEEEEEWRRAKERPEEIIILGILWKPNDEEAERRIKEALRRV [G15P]
1.03

Determine its reported folding stability dG: SEEEEEEWRRAKERGEEIIILGILWKPNDEEAERRIKEAHRRV [L40H]
1.26

Provenance of the data: the MegaScale stability set (Tsuboyama et al. 2023)
